Molecular target: UniProt O42275
Sequence (O42275 whole entry): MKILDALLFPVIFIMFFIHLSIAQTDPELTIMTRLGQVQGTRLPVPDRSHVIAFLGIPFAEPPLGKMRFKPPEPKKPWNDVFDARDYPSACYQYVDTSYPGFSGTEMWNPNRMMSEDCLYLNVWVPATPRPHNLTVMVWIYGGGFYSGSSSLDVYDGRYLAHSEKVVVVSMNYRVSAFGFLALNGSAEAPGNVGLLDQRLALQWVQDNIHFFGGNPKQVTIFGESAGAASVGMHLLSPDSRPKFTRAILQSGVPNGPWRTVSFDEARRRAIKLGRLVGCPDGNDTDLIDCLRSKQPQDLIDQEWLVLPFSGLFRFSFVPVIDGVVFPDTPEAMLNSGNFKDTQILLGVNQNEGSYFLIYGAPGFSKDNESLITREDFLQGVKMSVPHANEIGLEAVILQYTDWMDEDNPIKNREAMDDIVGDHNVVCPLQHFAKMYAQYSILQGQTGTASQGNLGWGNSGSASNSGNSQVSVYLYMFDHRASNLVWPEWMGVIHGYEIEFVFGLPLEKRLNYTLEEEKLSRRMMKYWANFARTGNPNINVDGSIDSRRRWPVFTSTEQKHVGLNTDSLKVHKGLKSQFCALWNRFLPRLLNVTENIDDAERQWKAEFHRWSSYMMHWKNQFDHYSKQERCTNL
Cut-off 300 nM on IC50: below means 1, at or above means 0.

See these solved cases before continuing.
[[record]]
entry_smiles = "O=c1c2ccccc2nnn1Cc1ccc[n+](Cc2ccccc2)c1"
discrete_label = 1

[[record]]
entry_smiles = "O=c1c2ccccc2nnn1Cc1ccc[n+](Cc2ccccc2[N+](=O)[O-])c1"
discrete_label = 1


Lookup: Please indicate whether the reported IC50 of `Cc1ccccc1C[n+]1cccc(Cn2nnc3ccccc3c2=O)c1` is strictly below 300 nM.
Found: 1

Lookup: Please indicate whether the reported IC50 of `O=c1c2ccccc2nnn1Cc1cc[n+](Cc2ccc(Br)cc2)cc1` is strictly below 300 nM.
Found: 0

Lookup: Please indicate whether the reported IC50 of `O=c1c2ccccc2nnn1Cc1ccc[n+](Cc2ccccc2F)c1` is strictly below 300 nM.
Found: 1

* * *

Recorded IC50 values for a group of molecules are listed next.
Molecular target: Cholinesterase (Equus caballus, UniProt P81908)
Sequence (P81908 whole entry): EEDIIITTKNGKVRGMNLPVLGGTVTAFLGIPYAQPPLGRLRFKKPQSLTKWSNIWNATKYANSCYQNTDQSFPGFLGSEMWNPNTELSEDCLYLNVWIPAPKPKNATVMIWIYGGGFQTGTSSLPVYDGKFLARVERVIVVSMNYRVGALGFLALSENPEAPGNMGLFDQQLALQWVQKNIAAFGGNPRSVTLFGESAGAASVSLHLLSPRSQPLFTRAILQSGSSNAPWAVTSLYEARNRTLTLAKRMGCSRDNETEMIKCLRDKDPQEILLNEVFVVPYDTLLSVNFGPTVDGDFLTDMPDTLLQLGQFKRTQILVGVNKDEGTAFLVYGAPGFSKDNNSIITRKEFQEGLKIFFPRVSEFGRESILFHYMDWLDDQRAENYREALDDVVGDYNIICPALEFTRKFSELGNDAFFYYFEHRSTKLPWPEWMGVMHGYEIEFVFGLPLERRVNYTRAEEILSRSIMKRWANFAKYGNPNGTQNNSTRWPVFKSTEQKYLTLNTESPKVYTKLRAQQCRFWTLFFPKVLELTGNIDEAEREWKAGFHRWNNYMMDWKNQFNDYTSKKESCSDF
Assay: Inhibition of equine serum BuChE pre-incubated for 5 mins before butyrylthiocholine iodide substrate addition and measured after 15 mins by Ellman's method
Numbers only; they are read as µM.

Past entries and their recorded results:
[[record]]
entry_smiles = "O=c1c2ccccc2nnn1Cc1ccc[n+](Cc2cccc(Br)c2)c1"
reported_property = "IC50"
experimental_result = 14.7

[[record]]
entry_smiles = "O=c1c2ccccc2nnn1Cc1ccc[n+](Cc2ccc([N+](=O)[O-])cc2)c1"
reported_property = "IC50"
experimental_result = 17.2

[[record]]
entry_smiles = "O=c1c2ccccc2nnn1Cc1ccc[n+](Cc2cccc(F)c2)c1"
reported_property = "IC50"
experimental_result = 27.8

[[record]]
entry_smiles = "O=c1c2ccccc2nnn1Cc1ccc[n+](Cc2ccccc2Br)c1"
reported_property = "IC50"
experimental_result = 16.8

[[record]]
entry_smiles = "O=c1c2ccccc2nnn1Cc1cc[n+](Cc2ccccc2Cl)cc1"
reported_property = "IC50"
experimental_result = 55


Lookup: Quick one: IC50 for `Cc1ccccc1C[n+]1cccc(Cn2nnc3ccccc3c2=O)c1` ?
Found: 13.7

Lookup: Quick one: IC50 for `O=c1c2ccccc2nnn1Cc1cc[n+](Cc2ccc(F)cc2)cc1` ?
Found: 70.7

Lookup: Quick one: IC50 for `O=c1c2ccccc2nnn1Cc1ccc[n+](Cc2ccccc2F)c1` ?
Found: 23.9

Lookup: Quick one: IC50 for `O=c1c2ccccc2nnn1Cc1ccc[n+](Cc2ccccc2)c1` ?
Found: 31.2

Lookup: Quick one: IC50 for `O=c1c2ccccc2nnn1Cc1cc[n+](Cc2ccccc2)cc1` ?
Found: 75.2

* * *

Molecular target: Cholinesterase (Equus caballus, UniProt P81908)
Test: Inhibition of equine serum BuChE pre-incubated for 5 mins before butyrylthiocholine iodide substrate addition and measured after 15 mins by Ellman's method
Reported Property: pIC50
Please treat pIC50 as minus the base-10 logarithm of the molar concentration.

Past entries and their recorded results:
[[record]]
entry_smiles = "O=c1c2ccccc2nnn1Cc1cc[n+](Cc2ccc(Br)cc2)cc1"
experimental_result = 4.29

[[record]]
entry_smiles = "O=c1c2ccccc2nnn1Cc1ccc[n+](Cc2ccc(F)cc2)c1"
experimental_result = 4.62

[[record]]
entry_smiles = "O=c1c2ccccc2nnn1Cc1ccc[n+](Cc2ccccc2[N+](=O)[O-])c1"
experimental_result = 4.76

[[record]]
entry_smiles = "O=c1c2ccccc2nnn1Cc1cc[n+](Cc2ccccc2F)cc1"
experimental_result = 4.19

[[record]]
entry_smiles = "O=c1c2ccccc2nnn1Cc1ccc[n+](Cc2ccc(Br)cc2)c1"
experimental_result = 5.24

[[record]]
entry_smiles = "O=c1c2ccccc2nnn1Cc1ccc[n+](Cc2c(Cl)cccc2Cl)c1"
experimental_result = 4.67


Lookup: Quick one: pIC50 for `O=c1c2ccccc2nnn1Cc1cc[n+](Cc2ccccc2[N+](=O)[O-])cc1` ?
Found: 4.74
